target: androgen receptor LBD (Panvera) (Rattus norvegicus, UniProt P15207)
Construct: 5 pmol androgen receptor LBD (Panvera); purchased Panvera
Sequence (P15207 651-882 limits assumed): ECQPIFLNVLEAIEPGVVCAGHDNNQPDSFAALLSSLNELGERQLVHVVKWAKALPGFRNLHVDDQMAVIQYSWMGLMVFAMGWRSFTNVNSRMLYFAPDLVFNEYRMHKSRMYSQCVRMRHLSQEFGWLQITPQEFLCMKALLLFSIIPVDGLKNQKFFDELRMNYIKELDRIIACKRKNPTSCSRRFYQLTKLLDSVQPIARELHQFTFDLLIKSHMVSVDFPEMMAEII
experiment_description: Androgen Receptor Filtration Binding Assay (PANVERA)
protocol_conditions: [3H] R1881 tracer 0.5 nM; read-out: IC50 (nM), Androgen Receptor Binding (Panvera)
Catalogue of IC50 readings, one per entry.
Write down the numeric answer in nM and omit the unit.

1. CC(O)(COC(=O)c1ccc(Cl)cc1)c1cc2cc(C#N)c(C(F)(F)F)cc2[nH]1 (stereo not shown) [Compound 76]	1240

Exercise: Enter reported IC50 observed with androgen receptor LBD (Panvera) (Rattus norvegicus, UniProt P15207) for CC(O)(CSc1ccc(Cl)cc1)c1cc2cc([N+](=O)[O-])c(C(F)(F)F)cc2o1 (racemic) [Compound 8]
Key: 2650

---

target: androgen receptor (rat ventral prostate cytosol) (Rattus norvegicus, UniProt P15207)
Construct: from tissue; host or cells: ventral prostate cytosol of castrated male Sprague Dawley or Wistar rats
Sequence (P15207 1-902): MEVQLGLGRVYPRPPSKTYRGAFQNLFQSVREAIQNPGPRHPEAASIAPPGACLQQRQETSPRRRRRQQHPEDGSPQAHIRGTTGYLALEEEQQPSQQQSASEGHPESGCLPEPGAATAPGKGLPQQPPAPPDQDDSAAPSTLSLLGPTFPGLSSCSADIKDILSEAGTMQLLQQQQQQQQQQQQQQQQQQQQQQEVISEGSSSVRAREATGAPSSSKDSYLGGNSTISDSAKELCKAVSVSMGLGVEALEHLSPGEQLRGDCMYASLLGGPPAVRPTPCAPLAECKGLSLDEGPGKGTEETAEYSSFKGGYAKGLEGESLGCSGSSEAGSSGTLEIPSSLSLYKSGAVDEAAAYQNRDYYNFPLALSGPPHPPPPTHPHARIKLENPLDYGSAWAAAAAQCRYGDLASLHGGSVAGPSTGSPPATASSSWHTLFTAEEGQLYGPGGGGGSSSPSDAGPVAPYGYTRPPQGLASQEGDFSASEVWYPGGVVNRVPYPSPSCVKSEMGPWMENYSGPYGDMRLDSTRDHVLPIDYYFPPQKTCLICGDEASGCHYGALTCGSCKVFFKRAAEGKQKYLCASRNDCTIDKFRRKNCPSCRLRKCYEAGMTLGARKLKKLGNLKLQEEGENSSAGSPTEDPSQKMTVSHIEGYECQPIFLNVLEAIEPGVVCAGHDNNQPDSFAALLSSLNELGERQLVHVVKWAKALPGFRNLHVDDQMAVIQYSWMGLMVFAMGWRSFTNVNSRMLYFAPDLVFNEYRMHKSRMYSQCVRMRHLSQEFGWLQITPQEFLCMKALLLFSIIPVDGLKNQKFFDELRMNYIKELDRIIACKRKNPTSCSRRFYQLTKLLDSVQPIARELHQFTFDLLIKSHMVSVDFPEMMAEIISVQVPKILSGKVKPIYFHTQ
experiment_description: Androgen Receptor Binding Using Rat Ventral Prostate Cytosol
protocol_conditions: Concentration 1000 nM; 1 µM
measure_name: % Inhibition, Androgen Receptor Binding (Rat Cytosol) (%)
Write down the numeric answer in % and omit the unit.

Guide cases for % Inhibition, Androgen Receptor Binding (Rat Cytosol), answers given:
1. O=[N+]([O-])c1cc2cc(C3(O)CCN(Cc4ccc(Cl)cc4)CC3)[nH]c2cc1C(F)(F)F [Compound 41]	20
2. CC(O)(CSc1ccc(Cl)cc1)c1cc2cc(Cl)c(C(F)(F)F)cc2[nH]1 (stereo not shown) [Compound 82]	83
3. CC(O)(C[S+]([O-])c1ccc(Cl)c(Cl)c1)c1cc2cc(Cl)c(C(F)(F)F)cc2[nH]1 (stereo not shown) [Compound 117]	32.5

Exercise: Enter reported % Inhibition, Androgen Receptor Binding (Rat Cytosol) observed with androgen receptor (rat ventral prostate cytosol) (Rattus norvegicus, UniProt P15207) for COc1cccc(CN2CCC(O)(c3cc4cc([N+](=O)[O-])c(C(F)(F)F)cc4[nH]3)CC2)c1 [Compound 39]
Key: 6

---

Catalogue of IC50 readings, one per entry.
target: androgen receptor (AdEasy+rAR, L929 cells) (Rattus norvegicus)
Construct: expressed in transfected cells; host or cells: L929 cells transduced with adenovirus AdEasy+rAR
Sequence (P15207 1-902): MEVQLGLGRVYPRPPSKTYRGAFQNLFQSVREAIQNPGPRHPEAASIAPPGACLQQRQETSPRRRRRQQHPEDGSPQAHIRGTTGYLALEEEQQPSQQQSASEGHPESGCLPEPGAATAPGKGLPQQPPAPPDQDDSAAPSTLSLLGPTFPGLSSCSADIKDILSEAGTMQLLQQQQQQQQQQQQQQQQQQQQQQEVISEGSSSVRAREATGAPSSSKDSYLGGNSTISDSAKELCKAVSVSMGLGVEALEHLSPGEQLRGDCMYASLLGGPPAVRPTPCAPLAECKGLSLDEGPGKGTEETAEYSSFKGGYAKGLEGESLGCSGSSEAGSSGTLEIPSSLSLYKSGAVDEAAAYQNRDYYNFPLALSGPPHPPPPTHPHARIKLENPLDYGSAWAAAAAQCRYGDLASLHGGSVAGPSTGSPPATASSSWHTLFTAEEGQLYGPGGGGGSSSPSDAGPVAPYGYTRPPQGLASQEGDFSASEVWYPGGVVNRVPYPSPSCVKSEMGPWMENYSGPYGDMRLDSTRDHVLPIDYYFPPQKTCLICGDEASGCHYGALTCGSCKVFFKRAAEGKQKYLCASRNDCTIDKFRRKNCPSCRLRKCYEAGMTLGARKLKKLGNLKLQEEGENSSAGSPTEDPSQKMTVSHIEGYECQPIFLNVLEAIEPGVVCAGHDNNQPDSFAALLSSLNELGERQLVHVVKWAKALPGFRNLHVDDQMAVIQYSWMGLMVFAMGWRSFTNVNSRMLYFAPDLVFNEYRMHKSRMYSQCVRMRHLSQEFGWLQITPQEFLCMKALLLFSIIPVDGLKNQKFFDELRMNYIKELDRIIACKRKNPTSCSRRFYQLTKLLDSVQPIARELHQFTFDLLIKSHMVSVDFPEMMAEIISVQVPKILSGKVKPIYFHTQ
experiment_description: L929 Androgen Receptor Functional Assay, Adenovirus Transduction
Assay type: cell-based
protocol_conditions: antagonist testing with R1881
Write down the numeric answer in nM and omit the unit.

1) CCSCC(C)(O)c1[nH]c2cc(C(F)(F)F)c(C#N)cc2c1C (single isomer, unassigned) [Compound 234]	215
2) CCS(=O)(=O)CC(C)(O)c1[nH]c2cc(C(F)(F)F)c(C#N)cc2c1C (single isomer, unassigned) [Compound 252]	3100
3) CC(O)(CSCC(F)(F)F)c1cc2cc([N+](=O)[O-])c(C(F)(F)F)cc2[nH]1 (stereo not shown)	366

Could you now consider this next compound?
Exercise: Please give the measured IC50 for this compound: CCSCC(C)(O)c1cc2cc([N+](=O)[O-])c(C(F)(F)F)cc2[nH]1 (single isomer, unassigned)
Key: 303

---

Catalogue of % Inhibition, Androgen Receptor Binding (Rat Cytosol) readings, one per entry.
target: androgen receptor (rat ventral prostate cytosol) (Rattus norvegicus, UniProt P15207)
Construct: from tissue; host or cells: ventral prostate cytosol of castrated male Sprague Dawley or Wistar rats
experiment_description: Androgen Receptor Binding Using Rat Ventral Prostate Cytosol
protocol_conditions: Concentration 1000 nM; 1 µM
Write down the numeric answer in % and omit the unit.

Guide cases for % Inhibition, Androgen Receptor Binding (Rat Cytosol), answers given:
1. O=[N+]([O-])c1cc2cc(C3(O)CCN(Cc4ccc(Cl)cc4)CC3)[nH]c2cc1C(F)(F)F [Compound 40]	−2.5
2. COc1cccc(CN2CCC(O)(c3cc4cc([N+](=O)[O-])c(C(F)(F)F)cc4[nH]3)CC2)c1 [Compound 38]	16
3. CC(O)(C[S+]([O-])c1ccccc1)c1cc2cc(Cl)c(C(F)(F)F)cc2[nH]1 (stereo not shown)	54.5

Could you now consider this next molecule?
Exercise: Please give the measured % Inhibition, Androgen Receptor Binding (Rat Cytosol) for this molecule: CC(O)(C[S+]([O-])c1ccc(F)cc1)c1cc2cc(Cl)c(C(F)(F)F)cc2[nH]1 (stereo not shown)
Key: 61

---

target: androgen receptor (AdEasy+rAR, L929 cells) (Rattus norvegicus, UniProt P15207)
Construct: expressed in transfected cells; host or cells: L929 cells transduced with adenovirus AdEasy+rAR
experiment_description: L929 Androgen Receptor Functional Assay, Adenovirus Transduction
Type: cell-based
protocol_conditions: agonist testing, 3000 nM
measure_name: % Activity, L929 androgen receptor functional assay

Exercise: Please give the measured % Activity, L929 androgen receptor functional assay for this compound: CC(O)(CS(C)(=O)=O)c1cc2cc([N+](=O)[O-])c(C(F)(F)F)cc2[nH]1 (centres unmarked) [Compound 147]
Key: 0%

Exercise: Follow-up entry: CCS(=O)(=O)CC(C)(O)c1cc2cc(C#N)c(C(F)(F)F)cc2n1C (racemic) [Compound 240]
Key: 0%

Exercise: Follow-up entry: CCC(O)(CSCC(F)(F)F)c1cc2cc(F)c(C(F)(F)F)cc2[nH]1 (centres unmarked) [Compound 194]
Key: 2%

Exercise: Follow-up entry: CN(C)c1ccccc1SCC(C)(O)c1cc2cc(Cl)c(C(F)(F)F)cc2[nH]1 (centres unmarked) [Compound 127]
Key: −5%

Exercise: Follow-up entry: CCSCC(C)(O)c1cc2cc(C#N)c(Cl)cc2[nH]1 (centres unmarked) [Compound 225]
Key: 1%

Exercise: Follow-up entry: CC(O)(CSc1ccc(N)cc1)c1cc2cc(Cl)c(C(F)(F)F)cc2n1S(C)(=O)=O (racemic) [Compound 125]
Key: −5%

Exercise: Follow-up entry: CC(O)(Sc1ccc(N)cc1)c1cc2cc(Cl)c(C(F)(F)F)cc2[nH]1 (racemic) [Compound 265]
Key: −1%

Exercise: Follow-up entry: CC[S+]([O-])C[C@](C)(O)c1cc2cc([N+](=O)[O-])c(C(F)(F)F)cc2[nH]1 (stereo in doubt) [Compound 155]
Key: 2%

Where do these numbers come from? They come from patent US7282507B2.
